Listed here: items and their measured pKd.
target: H1N1 (A/WSN/1933) hemagglutinin (HA) protein (Influenza A virus); assay: biochemical
Here pKd is given on a logarithmic scale as minus log10 of the concentration in mol/L.

C[C@H]1[C@H](C)CC[C@]2(C(=O)O)CC[C@]3(C)C(=CC[C@@H]4[C@@]5(C)CC[C@H](O)C(C)(C)[C@@H]5CC[C@]43C)[C@H]12 [UA, ursolic acid] = 3.86
CC1(C)CC[C@]2(C(=O)O)CC[C@]3(C)C(=CC[C@@H]4[C@@]5(C)CC[C@H](O)C(C)(C)[C@@H]5CC[C@]43C)[C@@H]2C1 [OA, oleanolic acid] = 4.51

Lab note: next compound to report on.
So what's the measured pKd for this one? CC1(C)[C@@H](O)CC[C@]2(C)[C@H]3C(=O)C=C4[C@@H]5C[C@@](C)(C(=O)O)CC[C@]5(C)CC[C@@]4(C)[C@]3(C)CC[C@@H]12 [GA, glycyrrhetinic acid]
3.23
